Test system: Aspergillus fumigatus
assayName: Antifungal activity against Aspergillus fumigatus ATCC 26934 after 48 hrs
Assay type: functional
conditionContext: ATCC 26934, 48 h
measurementKind: MIC

* N#Cc1c2ccccc2[n+]([O-])n1C/C=C/c1ccccc1 | > 250 µg/mL

The reported value for CC(=O)N1CCN(c2ccc(OCC3COC(Cn4ccnc4)(c4ccc(Cl)cc4Cl)O3)cc2)CC1 (centres undefined) in terms of MIC is 0.125 µg/mL

compound "Cc1c(C(=O)Nc2ccccc2)[n+]([O-])c2cc(CN3CCN(C/C=C/c4ccccc4)CC3)ccc2[n+]1[O-]" , MIC observed: > 250 µg/mL

Record summary for "C=CCNC(=S)N/N=C/c1ccc2no[n+]([O-])c2c1" : reported MIC = > 250 µg/mL

// "C=CCNC(=S)N/N=C/c1ccc2c(c1)[n+]([O-])c(C#N)c(N)[n+]2[O-]" : MIC value = > 250 µg/mL

Please fill in: MIC reported for "CN(C/C=C/C#CC(C)(C)C)Cc1cccc2ccccc12" = 0.78 µg/mL

Item: "C[C@@H]1[C@H](O)[C@@H](C)/C=C/C=C/C=C/C=C/C=C/C=C/C=C/[C@H](O[C@@H]2O[C@H](C)[C@@H](O)[C@H](N)[C@@H]2O)C[C@@H]2O[C@](O)(C[C@@H](O)C[C@@H](O)[C@H](O)CC[C@@H](O)C[C@@H](O)CC(=O)O[C@H]1C)C[C@H](O)[C@H]2C(=O)O" | MIC: 0.5 µg/mL

Quick note, MIC for "C=CCNC(=S)N/N=C/c1ccc2c(c1)=[N+]([O-])C(C)(C)[N+]=2[O-]" landed at > 250 µg/mL

Record "C=CCNC(=S)N/N=C/c1ccc2c(c1)[n+]([O-])c(C)c(C)[n+]2[O-]" . Reported MIC: > 250 µg/mL

Reported MIC ( "COc1nn(CCOCCN2CCN(C/C=C/c3ccccc3)CC2)c2ccc([N+](=O)[O-])cc12" ) = > 250 µg/mL

Query "CCOC(=O)c1c(-c2ccccc2)[n+]([O-])c2ccc(CN3CCN(C/C=C/c4ccccc4)CC3)cc2[n+]1[O-]" yields MIC of > 250 µg/mL

According to the records, this compound "C=CCNC(=S)N/N=C/c1ccc2c(c1)[n+]([O-])c(C(=O)Nc1ccccc1)c(C)[n+]2[O-]" displays MIC of > 250 µg/mL

The compound listed as "O=[N+]([O-])c1ccc2c(c1)c(OCc1ccccc1)nn2CCOCCN1CCN(C/C=C/c2ccccc2)CC1" has a reported MIC of > 250 µg/mL

Please fill in: MIC reported for "O=[N+]([O-])c1ccc2c(c1)c(OCc1ccccc1)nn2CCCCCN1CCN(C/C=C/c2ccccc2)CC1" = > 250 µg/mL

The reported numbers originate from ChEMBL document CHEMBL1165856.
